Source listed as ChEMBL document CHEMBL4270491.

tested on: PC-3; assay: Cytotoxic activity in human PC3 cells assessed as reduction in cell viability incubated for 3 days by MTT assay; type: functional, cell-based; settings: PC-3, 72 h
Assay readout: IC50 (µM)
Quick reminder: number only, in µM, skip the unit.

| Entry smiles | System tested | Readout number |
| --- | --- | --- |
| O=C1NC(=O)/C(=C\c2ccc(OCc3nc4ccccc4c(=O)n3-c3cccc(Br)c3)cc2)S1 | PC-3 | 52.9 |
| O=C1NC(=O)/C(=C\c2ccc(OCc3nc4ccccc4c(=O)n3-c3ccc(C(F)(F)F)cc3)cc2)S1 | PC-3 | 19.1 |
| COc1cccc(-n2c(COc3ccc(/C=C4/SC(=O)NC4=O)cc3OC)nc3ccccc3c2=O)c1 | PC-3 | 64.1 |

## Input I have this compound here, COc1ccc(/C=C2/SC(=O)N(Cc3nc4ccccc4c(=O)n3-c3ccccc3)C2=O)cc1 , and I need its recorded IC50.
## Output 79.6

## Input I have this compound here, Cc1ccc(-n2c(COc3ccc(/C=C4/SC(=O)NC4=O)cc3)nc3ccccc3c2=O)cc1 , and I need its recorded IC50.
## Output 82.5

## Input I have this compound here, COc1cc(/C=C2/SC(=O)NC2=O)ccc1OCc1nc2ccccc2c(=O)n1-c1cccc(Br)c1 , and I need its recorded IC50.
## Output 66.8

## Input I have this compound here, O=C1NC(=O)/C(=C\c2ccc(OCc3nc4ccccc4c(=O)n3-c3ccc(Cl)cc3)cc2)S1 , and I need its recorded IC50.
## Output 8.7

* * *

tested on: HT-1080; assay: Cytotoxic activity in human HT1080 cells assessed as reduction in cell viability incubated for 3 days by MTT assay; type: functional, cell-based; details: HT-1080, 72 h
Recorded IC50, one value per entry.
Quick reminder: number only, in µM, skip the unit.

Recorded results for 2 molecules are shown here.
| Entry smiles | System tested | Units | Readout number |
| --- | --- | --- | --- |
| COc1cc(/C=C2/SC(=O)NC2=O)ccc1OCc1nc2ccccc2c(=O)n1-c1ccc(Br)cc1 | HT-1080 | µM | 18.9 |
| Cc1ccc(-n2c(COc3ccc(/C=C4/SC(=O)NC4=O)cc3)nc3ccccc3c2=O)cc1 | HT-1080 | µM | 45.3 |

Okay, next one:
## Input I have this molecule here, COc1cc(/C=C2/SC(=O)NC2=O)ccc1OCc1nc2ccccc2c(=O)n1-c1cccc(Cl)c1 , and I need its recorded IC50.
## Output 67.6

* * *

tested on: HT-1080; assay: Cytotoxic activity in human HT1080 cells assessed as reduction in cell viability incubated for 3 days by MTT assay; format: functional, cell-based; conditions: HT-1080, 72 h
Recorded pIC50, one value per entry.
When answering, recall that pIC50 equals minus log10 of the concentration in mol/L, and write that number alone.

| Entry smiles | pIC50 |
| --- | --- |
| O=C1S/C(=C/c2ccc(Cl)cc2Cl)C(=O)N1Cc1nc2ccccc2c(=O)n1-c1ccccc1 | 4.91 |
| COc1ccc(/C=C2/SC(=O)N(Cc3nc4ccccc4c(=O)n3-c3ccccc3)C2=O)cc1 | 4.32 |

## Input Find pIC50 (HT-1080) for the entry O=C1NC(=O)/C(=C\c2ccc(OCc3nc4ccccc4c(=O)n3-c3ccc(Cl)cc3)cc2)S1
## Output 5.41

## Input Find pIC50 (HT-1080) for the entry Cc1cccc(-n2c(COc3ccc(/C=C4/SC(=O)NC4=O)cc3)nc3ccccc3c2=O)c1
## Output 4.27

* * *

tested on: HT-1080; assay: Cytotoxic activity in human HT1080 cells assessed as reduction in cell viability incubated for 3 days by MTT assay; assay type: functional, cell-based; conditions: HT-1080, 72 h
Assay readout: IC50

Recorded results for 6 molecules are shown here.
| Entry smiles | Result |
| --- | --- |
| COc1cccc(-n2c(COc3ccc(/C=C4/SC(=O)NC4=O)cc3)nc3ccccc3c2=O)c1 | 45.6 µM |
| Cc1ccc(/C=C2/SC(=O)N(Cc3nc4ccccc4c(=O)n3-c3ccccc3)C2=O)cc1 | 68.4 µM |
| COc1cc(-n2c(CN3C(=O)S/C(=C/c4ccc(N(C)C)cc4)C3=O)nc3ccccc3c2=O)cc(OC)c1OC | 98.1 µM |
| O=C1NC(=O)/C(=C\c2ccc(OCc3nc4ccccc4c(=O)n3-c3cccc(Br)c3)cc2)S1 | 28.4 µM |
| O=C1NC(=O)/C(=C\c2ccc(OCc3nc4ccccc4c(=O)n3-c3cccc(Cl)c3)cc2)S1 | 44.8 µM |
| O=C1NC(=O)/C(=C\c2ccc(OCc3nc4ccccc4c(=O)n3-c3ccccc3)cc2)S1 | 34.9 µM |

## Input I have this molecule here, O=C1NC(=O)/C(=C\c2ccc(OCc3nc4ccccc4c(=O)n3-c3ccc(F)cc3)cc2)S1 , and I need its recorded IC50.
## Output 45.3 µM

## Input I have this molecule here, COc1cccc2c1C(=O)c1c(O)c3c(c(O)c1C2=O)C[C@@](O)(C(=O)CO)C[C@@H]3O[C@H]1C[C@H](N)[C@H](O)[C@H](C)O1 , and I need its recorded IC50.
## Output 0.017 µM

## Input I have this molecule here, COc1cccc(-n2c(COc3ccc(/C=C4/SC(=O)NC4=O)cc3OC)nc3ccccc3c2=O)c1 , and I need its recorded IC50.
## Output 47.9 µM

## Input I have this molecule here, O=C1S/C(=C/c2ccccc2)C(=O)N1Cc1nc2ccccc2c(=O)n1-c1cccc(Br)c1 , and I need its recorded IC50.
## Output 24.6 µM

* * *

test system: PC-3; assay: Cytotoxic activity in human PC3 cells assessed as reduction in cell viability incubated for 3 days by MTT assay; format: functional, cell-based; details: PC-3, 72 h
Define the label as condition met when IC50 is strictly less than 60 µM and as condition not met in all remaining cases.

// known answers, use as guide
| Entry smiles | Assigned class |
| --- | --- |
| COc1cccc2c1C(=O)c1c(O)c3c(c(O)c1C2=O)C[C@@](O)(C(=O)CO)C[C@@H]3O[C@H]1C[C@H](N)[C@H](O)[C@H](C)O1 | condition met |
| CN(C)c1ccc(/C=C2/SC(=O)N(Cc3nc4ccccc4c(=O)n3-c3ccccc3)C2=O)cc1 | condition met |
| O=C1NC(=O)/C(=C\c2ccc(OCc3nc4ccccc4c(=O)n3-c3ccc(F)cc3)cc2)S1 | condition met |
| Cc1cccc(-n2c(COc3ccc(/C=C4/SC(=O)NC4=O)cc3)nc3ccccc3c2=O)c1 | condition not met |
| O=C1S/C(=C/c2ccc(Cl)cc2Cl)C(=O)N1Cc1nc2ccccc2c(=O)n1-c1ccccc1 | condition met |
| O=C1S/C(=C/c2ccccc2)C(=O)N1Cc1nc2ccccc2c(=O)n1-c1cccc(Br)c1 | condition met |

## Input Is the reported IC50 for Cc1ccc(/C=C2/SC(=O)N(Cc3nc4ccccc4c(=O)n3-c3ccccc3)C2=O)cc1 strictly below 60 µM?
## Output condition not met

## Input Is the reported IC50 for COc1cccc(-n2c(COc3ccc(/C=C4/SC(=O)NC4=O)cc3)nc3ccccc3c2=O)c1 strictly below 60 µM?
## Output condition not met

## Input Is the reported IC50 for O=C1NC(=O)/C(=C\c2ccc(OCc3nc4ccccc4c(=O)n3-c3ccccc3)cc2)S1 strictly below 60 µM?
## Output condition not met

## Input Is the reported IC50 for COc1cc(/C=C2/SC(=O)NC2=O)ccc1OCc1nc2ccccc2c(=O)n1-c1ccccc1 strictly below 60 µM?
## Output condition not met

## Input Is the reported IC50 for COc1cc(-n2c(CN3C(=O)S/C(=C/c4ccc(N(C)C)cc4)C3=O)nc3ccccc3c2=O)cc(OC)c1OC strictly below 60 µM?
## Output condition not met

## Input Is the reported IC50 for O=C1NC(=O)/C(=C\c2ccc(OCc3nc4ccccc4c(=O)n3-c3cccc(Cl)c3)cc2)S1 strictly below 60 µM?
## Output condition not met

* * *

test system: HT-1080; assay: Induction of apoptosis in human HT1080 cells assessed as induction of DNA fragmentation at 50 uM incubated for 48 hrs by flow cytometry; format: functional, cell-based
Activity calls are given as the source filed them. The rule behind the calls is not given here.
Your answer must be one of the following: active, inactive

## Input Please let me know the test result on file for O=C1NC(=O)/C(=C\c2ccc(OCc3nc4ccccc4c(=O)n3-c3cccc(Br)c3)cc2)S1 .
## Output active

## Input Please let me know the test result on file for COc1ccc(-n2c(CN3C(=O)S/C(=C/c4ccc(N(C)C)cc4)C3=O)nc3ccccc3c2=O)cc1OC .
## Output active

## Input Please let me know the test result on file for COc1cc(/C=C2/SC(=O)NC2=O)ccc1OCc1nc2ccccc2c(=O)n1-c1ccc(Br)cc1 .
## Output active

## Input Please let me know the test result on file for COc1cc(/C=C2/SC(=O)NC2=O)ccc1OCc1nc2ccccc2c(=O)n1-c1ccc(C(F)(F)F)cc1 .
## Output active

## Input Please let me know the test result on file for COc1ccc(/C=C2/SC(=O)N(Cc3nc4ccccc4c(=O)n3-c3ccccc3)C2=O)cc1 .
## Output active

## Input Please let me know the test result on file for O=C1NC(=O)/C(=C\c2ccc(OCc3nc4ccccc4c(=O)n3-c3ccc(F)cc3)cc2)S1 .
## Output active

## Input Please let me know the test result on file for Cc1ccc(-n2c(COc3ccc(/C=C4/SC(=O)NC4=O)cc3)nc3ccccc3c2=O)cc1 .
## Output active

## Input Please let me know the test result on file for CCc1ccc(CCOc2ccc(CC3SC(=O)NC3=O)cc2)nc1 (stereo not given) .
## Output inactive

## Input Please let me know the test result on file for COc1cc(-n2c(CN3C(=O)S/C(=C/c4ccc(N(C)C)cc4)C3=O)nc3ccccc3c2=O)cc(OC)c1OC .
## Output inactive

## Input Please let me know the test result on file for COc1cc(/C=C2/SC(=O)NC2=O)ccc1OCc1nc2ccccc2c(=O)n1-c1ccccc1 .
## Output active

## Input Please let me know the test result on file for COc1cccc(-n2c(COc3ccc(/C=C4/SC(=O)NC4=O)cc3OC)nc3ccccc3c2=O)c1 .
## Output active

## Input Please let me know the test result on file for COc1cccc(-n2c(COc3ccc(/C=C4/SC(=O)NC4=O)cc3)nc3ccccc3c2=O)c1 .
## Output active
